Provenance of the data: the supplement of paper PMC8671470

System: MV4-11
Experiment: cell viability (% survival relative to DMSO control, bortezomib = 0%); higher = less cytotoxic
Conditions: 1000 nM; 72 h
OBSERVABLE: cell viability

# annotated cases, reported cell viability shown
OCC(CO)N[C@H]1C[C@](O)(CO)[C@@H](O)[C@H](O)[C@H]1O [Voglibose]: 84.7%
c1ccc2nc(-c3nnc4sc(-c5cnccn5)nn34)ccc2c1: 88%
Clc1cc(Cl)c(OCC#CI)cc1Cl [Haloprogin]: 89%
CC(C)(CCCCCCCCCCC(C)(C)CC(=O)O)CC(=O)O [MEDICA 16]: 102%
N#Cc1ccc(C2CCCc3cncn32)cc1 (centres undefined) [Fadrozole]: 93.2%
Cc1[nH]n(-c2ccccc2)c(=O)c1C1(C(F)(F)F)C(=O)N(c2ccccc2)C2=C1C(=O)CC(C)(C)C2 (centres undefined): 97.1%
COc1ccc2c(c1)c(CC(=O)O)c(C)n2C(=O)c1ccc(Cl)cc1 [Indomethacine]: 95.3%
Cc1nnc(-c2ccc(N3CCC(Oc4ccccc4C(F)(F)F)CC3)nn2)s1 [MF-438]: 99.2%

Now look at this entry.
Requested read-out: cell viability. Entry: CN(C)CCNC(=O)c1cccn2c(=O)c3cc4ccccc4cc3nc12 [Bmh-21] 78.8%
